Catalogue of MIC values
Test system: Salmonella typhi
Assay overview: Antimicrobial activity against Salmonella enterica serovar Typhi isolate 080048Ty transconjugant harboring bla CTX-M-15 gene by broth microdilution method
Assay type: functional, Salmonella enterica subsp. enterica serovar Typhi

See these solved cases before continuing.
CO/N=C(\C(=O)N[C@@H]1C(=O)N2C(C(=O)O)=C(CSc3nc(=O)c(O)nn3C)CS[C@H]12)c1csc(N)n1 :: > 128 mg/L
CO/N=C(\C(=O)N[C@@H]1C(=O)N2C(C(=O)O)=C(COC(C)=O)CS[C@H]12)c1csc(N)n1 :: > 128 mg/L
CC1(C)S[C@@H]2[C@H](NC(=O)[C@H](N)c3ccccc3)C(=O)N2[C@H]1C(=O)O :: > 64 mg/L
CCn1cc(C(=O)O)c(=O)c2ccc(C)nc21 :: > 64 mg/L

query: What does the record list as MIC for "CC(C)(O/N=C(\C(=O)N[C@@H]1C(=O)N2C(C(=O)[O-])=C(C[n+]3ccccc3)CS[C@H]12)c1csc(N)n1)C(=O)O" ?
result: 64 mg/L

* * *

Tested on: Salmonella typhi
Assay overview: Antimicrobial activity against Salmonella enterica serovar Typhi isolate 080048Ty by broth microdilution method
Format: functional, Salmonella enterica subsp. enterica serovar Typhi
In this section we review reported MIC values for a set of molecules.
Give the number; µg/mL is assumed, so skip it.

CO/N=C(\C(=O)N[C@@H]1C(=O)N2C(C(=O)O)=C(COC(C)=O)CS[C@H]12)c1csc(N)n1 :: 0.125
CO/N=C(\C(=O)N[C@@H]1C(=O)N2C(C(=O)O)=C(CSc3nc(=O)c(O)nn3C)CS[C@H]12)c1csc(N)n1 :: 0.125

query: Please look up its MIC: "CC(C)(O/N=C(\C(=O)N[C@@H]1C(=O)N2C(C(=O)[O-])=C(C[n+]3ccccc3)CS[C@H]12)c1csc(N)n1)C(=O)O"
result: 1
